Source listed as patent US11873298B2.

assay-system: SCD5 (Homo sapiens, UniProt Q86SK9)
Construct: host or cells: S. cerevisiae ole1Δ strain (W303 pdr1Δ pdr3Δ background), plasmid pRS316 with TDH3 promoter and CYC1 terminator
Sequence (Q86SK9 whole entry): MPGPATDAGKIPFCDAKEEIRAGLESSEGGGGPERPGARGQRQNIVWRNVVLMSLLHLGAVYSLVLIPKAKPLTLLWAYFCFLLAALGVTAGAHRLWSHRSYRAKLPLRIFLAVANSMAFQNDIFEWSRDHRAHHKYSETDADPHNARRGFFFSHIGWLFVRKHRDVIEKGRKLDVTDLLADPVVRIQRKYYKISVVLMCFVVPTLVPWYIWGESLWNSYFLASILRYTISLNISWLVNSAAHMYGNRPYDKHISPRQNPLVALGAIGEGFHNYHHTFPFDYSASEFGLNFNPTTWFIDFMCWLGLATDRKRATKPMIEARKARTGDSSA
test: Growth inhibition of humanized yeast strain expressing SCD5 as sole desaturase
Format: cell-based
setup-conditions: humanized yeast strain, 40 h
pIC50: −log10 of the molar value.
Each entry gets Condition not met if its pIC50 stays under 5, and Condition met if its pIC50 is 5 or above.

Please review the entries below; each comes with its answer.
# compound, assay-system, class-label
data = [
    ("CC(C)C(=O)N1CCC(c2noc(-c3cccc(N4CCOCC4)c3F)n2)CC1 [Compound 1160]", "SCD5 (Homo sapiens, UniProt Q86SK9)", "Condition not met"),
    ("COC(=O)N1CC2(C1)CN(c1noc(-c3ccc4cnn(C5COC5)c4c3)n1)C2 [Compound 1063]", "SCD5 (Homo sapiens, UniProt Q86SK9)", "Condition met"),
    ("COC(=O)N1CCC(c2noc(-c3ccc4cnn(C5COC(C)(C)C5)c4c3)n2)CC1 (centres unmarked) [Compound 1094]", "SCD5 (Homo sapiens, UniProt Q86SK9)", "Condition not met"),
    ("O=C(C1CCC1)N1CCC(c2nc(-c3ccc4cnn(C5COC5)c4c3)no2)CC1 [Compound 1044]", "SCD5 (Homo sapiens, UniProt Q86SK9)", "Condition met"),
]

q: Reported pIC50 at or above 5? CC(C)(C)OC(=O)N1C[C@@H]2[C@H](C1)[C@H]2NC(=O)OCc1ccccc1 [Compound 774]
a: Condition not met

q: Reported pIC50 at or above 5? CC(C)n1ncc2ccc(-c3nc(N4CCN(C(=O)c5ncccc5F)CC4)no3)cc21 [Compound 845]
a: Condition met

q: Reported pIC50 at or above 5? COC(=O)N1CCN(c2noc(-c3ccnc(NC4COC4)c3)n2)CC1 [Compound 947]
a: Condition not met

====

assay-system: Ole1 (Saccharomyces cerevisiae, UniProt P21147)
Construct: expressed in transfected cells; host or cells: S. cerevisiae ole1Δ strain (W303 pdr1Δ pdr3Δ background), plasmid pRS316 with TDH3 promoter and CYC1 terminator
Sequence (P21147 whole entry): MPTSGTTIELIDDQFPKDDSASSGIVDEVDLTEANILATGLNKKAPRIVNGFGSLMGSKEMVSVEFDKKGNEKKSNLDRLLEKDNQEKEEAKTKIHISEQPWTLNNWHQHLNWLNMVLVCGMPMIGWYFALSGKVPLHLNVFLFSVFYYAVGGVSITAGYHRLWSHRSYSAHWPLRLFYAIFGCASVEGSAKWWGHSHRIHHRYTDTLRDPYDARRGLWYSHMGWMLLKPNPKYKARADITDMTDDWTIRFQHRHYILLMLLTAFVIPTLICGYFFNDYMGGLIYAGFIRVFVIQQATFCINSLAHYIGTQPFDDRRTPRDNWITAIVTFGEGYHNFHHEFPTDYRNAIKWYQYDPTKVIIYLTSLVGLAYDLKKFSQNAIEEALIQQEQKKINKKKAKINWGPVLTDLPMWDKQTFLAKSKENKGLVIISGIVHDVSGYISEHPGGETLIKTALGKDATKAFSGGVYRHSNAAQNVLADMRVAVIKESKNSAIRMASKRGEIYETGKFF
test: Growth inhibition of yeast strain expressing Ole1 as sole desaturase
Assay type: cell-based
setup-conditions: yeast strain expressing Ole1 as sole desaturase
property-name: OLE1 % Max Inhibition (%)
Kindly provide the numeric value in % only, without the unit symbol.

Study these solved cases before continuing.
# compound, assay-system, property-name, measured
data = [
    ("CCOc1ccc(-c2noc(C3CCN(C(=O)C4CC(=O)N(c5ccccc5)C4)CC3)n2)nc1OC (stereo not shown)", "Ole1 (Saccharomyces cerevisiae, UniProt P21147)", "OLE1 % Max Inhibition", 72.04),
    ("CCN1C(=O)COc2ccc(-c3nc(C4(c5ccccc5)CC4)no3)cc21", "Ole1 (Saccharomyces cerevisiae, UniProt P21147)", "OLE1 % Max Inhibition", 46.92),
    ("Cn1c(=O)n(C)c2cc(-c3noc(C4CCN(C(=O)[C@H]5CC(=O)N(c6ccccn6)C5)CC4)n3)ccc21", "Ole1 (Saccharomyces cerevisiae, UniProt P21147)", "OLE1 % Max Inhibition", 4.16),
]

q: For the compound Cc1nn(C)c2nc(-c3noc(C4CCN(C(=O)CN5Cc6ccccc6C5=O)CC4)n3)ccc12 , what OLE1 % Max Inhibition is on record?
a: 3.28

q: For the compound Cc1nn(C)c2cc(-c3noc(N4CCC(C(=O)N5CCO[C@H](c6ccccc6)C5)CC4)n3)ccc12 , what OLE1 % Max Inhibition is on record?
a: 2.65

q: For the compound CCN1C(=O)CC(C)c2ccc(-c3noc(C4CCN(C(=O)CNC(=O)c5ccccc5)CC4)n3)cc21 (stereo not shown) , what OLE1 % Max Inhibition is on record?
a: 6.6

q: For the compound CCOc1ccc(-c2noc(C3CCN(C(=O)C4CN(C(=O)c5ccccc5)C4)CC3)n2)cc1OC , what OLE1 % Max Inhibition is on record?
a: 18.53

====

assay-system: SCD5 (Homo sapiens)
Construct: host or cells: S. cerevisiae ole1Δ strain (W303 pdr1Δ pdr3Δ background), plasmid pRS316 with TDH3 promoter and CYC1 terminator
test: Growth inhibition of humanized yeast strain expressing SCD5 as sole desaturase
Type: cell-based
setup-conditions: humanized yeast strain expressing SCD5
Item-by-item account of SCD5 % Max Inhibition
The answer consists of two parts: a number and, after it, its unit.

# compound, assay-system, SCD5 % Max Inhibition
rows = [
    ("Cc1nn(C)c2cc(-c3noc(C4CCN(C(=O)C(CO)N5Cc6ccccc6C5=O)CC4)n3)ccc12 (stereo not shown)", "SCD5 (Homo sapiens)", "93.05%"),
    ("Cc1nn(C)c2ccc(-c3noc(C4CCN(C(=O)N5CCCCC5)CC4)n3)cc12", "SCD5 (Homo sapiens)", "54.63%"),
    ("CC(C)n1ncc2ccc(-c3noc(C4CCN(C(=O)c5cccc(F)c5)CC4)n3)cc21", "SCD5 (Homo sapiens)", "1.1%"),
]

Would you kindly look at the next entry?
q: For the compound Cc1ncc2ccc(-c3noc(C4CCN(C(=O)CNC(=O)c5ccccc5)CC4)n3)cn12 , what SCD5 % Max Inhibition is on record?
a: 78.96%

====

assay-system: SCD5 (Homo sapiens)
Construct: host or cells: S. cerevisiae ole1Δ strain (W303 pdr1Δ pdr3Δ background), plasmid pRS316 with TDH3 promoter and CYC1 terminator
test: Growth inhibition of humanized yeast strain expressing SCD5 as sole desaturase
Type: cell-based
setup-conditions: humanized yeast strain, 40 h
IC50 less than 10 nM is Fulfilled; IC50 greater than or equal to 10 nM is Not fulfilled.

# compound, assay-system, class-label
records = [
    ("COC(=O)N1CCC(c2noc(-c3cc(F)c4cnn(C5CCOC5)c4c3)n2)CC1 (centres unmarked)", "SCD5 (Homo sapiens)", "Fulfilled"),
    ("O=C(N1CCC(c2noc(-c3ccc4cnn(C5COC5)c4c3)n2)CC1)C1(F)CC1", "SCD5 (Homo sapiens)", "Not fulfilled"),
    ("CC(C)n1ncc2ccc(-c3noc(C4CCN(C(=O)c5ncc(Cl)o5)CC4)n3)cc21", "SCD5 (Homo sapiens)", "Not fulfilled"),
]

q: Item Cn1ccc(-c2cc(-c3nc(C4CCN(C(=O)OC5(C)CC5)CC4)no3)ccn2)n1 : IC50 beneath 10 nM, strictly?
a: Not fulfilled

q: Item COC(=O)N1CC[C@H](c2noc(-c3ccc4cnn(C5COC5)c4c3)n2)C[C@H]1C : IC50 beneath 10 nM, strictly?
a: Fulfilled

====

Item-by-item account of IC50
assay-system: SCD5 (Homo sapiens, UniProt Q86SK9)
Construct: host or cells: S. cerevisiae ole1Δ strain (W303 pdr1Δ pdr3Δ background), plasmid pRS316 with TDH3 promoter and CYC1 terminator
test: Growth inhibition of humanized yeast strain expressing SCD5 as sole desaturase
Assay type: cell-based
setup-conditions: humanized yeast strain, 40 h
Kindly provide the numeric value in nM only, without the unit symbol.

# compound, unit-label, measured
records = [
    ("CC(C)(C)OC(=O)N1CCC(c2noc(-c3cnc4cnn(C5COC5)c4c3)n2)CC1", "nM", 10),
    ("CC(C)(C)OC(=O)N1CCC(c2nc(-c3ccn4cnc(I)c4c3)no2)CC1", "nM", 262),
]

Would you kindly look at the next entry?
q: # get_value(readout= IC50, system= SCD5 (Homo sapiens, UniProt Q86SK9)) for CC(C)n1ncc2c1CN(c1noc(C3CCN(C(=O)OC(C)(C)C)CC3)n1)CC2 [Compound 893]
a: 10

====

assay-system: SCD5 (Homo sapiens, UniProt Q86SK9)
Construct: host or cells: S. cerevisiae ole1Δ strain (W303 pdr1Δ pdr3Δ background), plasmid pRS316 with TDH3 promoter and CYC1 terminator
test: Growth inhibition of humanized yeast strain expressing SCD5 as sole desaturase
Type: cell-based
setup-conditions: humanized yeast strain expressing SCD5
Item-by-item account of IC50

Study these solved cases before continuing.
# compound, IC50
records = [
    ("Cc1nn(C)c2cc(-c3noc(C4CCN(C(=O)CNC(=O)c5ccccc5C(F)(F)F)CC4)n3)ccc12", "> 45 µM"),
    ("CCOc1ccc(-c2noc(C3CCN(C(=O)CNC(=O)c4ccccc4)CC3)n2)cc1Br", "> 45 µM"),
    ("CCOc1ccc(-c2noc(C3CCN(C(=O)CN4Cc5c(F)cccc5C4=O)CC3)n2)cc1OC", "> 45 µM"),
]

q: For the compound Cc1ccc(-c2nc(C3CCN(C(=O)[C@H]4CC(=O)N(c5ccc(C)c(C)c5)C4)CC3)no2)cc1 (single isomer, unassigned) , what IC50 is on record?
a: > 45 µM

q: For the compound Cc1cccc(-c2noc(C3CCN(C(=O)C4CC(=O)N(c5ccc(C)c(C)c5)C4)CC3)n2)c1 (stereo not drawn) , what IC50 is on record?
a: > 45 µM

q: For the compound CCN1C(=O)COc2ccc(-c3nc(C(C)c4ccccc4)no3)cc21 (stereo not drawn) , what IC50 is on record?
a: 24.3 µM

q: For the compound CC(C)OC(=O)N1CCC(c2nc(-c3ccc4cnn(C(C)C)c4c3)no2)CC1 , what IC50 is on record?
a: > 45 µM

q: For the compound Cc1nn(C)c2cc(-c3noc(C4CCN(C(=O)CNC(=O)c5ccccc5)CC4)n3)cnc12 , what IC50 is on record?
a: 22.3 µM

q: For the compound Cc1nn(C)c2cc(-c3noc(C4CCN(C(=O)[C@@H](CO)NC(=O)c5ccccc5)CC4)n3)ccc12 , what IC50 is on record?
a: 30 µM

q: For the compound CCOc1ccc(-c2noc(C3CCN(C(=O)CN4Cc5ccccc5C4=O)CC3)n2)nc1OC , what IC50 is on record?
a: > 45 µM

q: For the compound Cc1nn(C)c2cc(-c3noc(N4CCN(C(=O)N5CCCCC5)CC4)n3)ccc12 , what IC50 is on record?
a: > 45 µM

q: For the compound Cc1noc2cc(-c3noc(C4CCN(C(=O)CNC(=O)c5ccccc5)CC4)n3)ccc12 , what IC50 is on record?
a: > 45 µM

q: For the compound Cn1c(=O)[nH]c2ccc(-c3noc(C4CCN(C(=O)CNC(=O)c5ccccc5)CC4)n3)cc21 , what IC50 is on record?
a: > 45 µM

q: For the compound Cc1cccc(-c2nc(C3CCN(C(=O)[C@@H]4CC(=O)N(c5ccc(C)c(C)c5)C4)CC3)no2)c1 (single isomer, unassigned) , what IC50 is on record?
a: > 45 µM

q: For the compound COc1ccc(-c2noc(C3CCN(C(=O)C4CC(=O)N(c5ccccc5)C4)CC3)n2)cc1OC (stereo not drawn) , what IC50 is on record?
a: > 45 µM
